Below: a set of entries, each annotated with reported melting point.
test-readout: melting point

[
  {
    "molecule-smiles": "O=[N+]([O-])c1cccc(-c2csc(NN=Cc3ccccc3[N+](=O)[O-])n2)c1",
    "test-readout": "melting point",
    "assay-result": "228 to 230 °C"
  },
  {
    "molecule-smiles": "CC(=NNc1nc(-c2cccc([N+](=O)[O-])c2)cs1)c1ccc2ccc3ccccc3c2c1",
    "test-readout": "melting point",
    "assay-result": "255 to 257 °C"
  },
  {
    "molecule-smiles": "CC(=NNc1nc(-c2cccc([N+](=O)[O-])c2)cs1)c1ccccc1",
    "test-readout": "melting point",
    "assay-result": "261 to 263 °C"
  },
  {
    "molecule-smiles": "CC(=NNc1nc(-c2cccc([N+](=O)[O-])c2)cs1)c1cccc([N+](=O)[O-])c1",
    "test-readout": "melting point",
    "assay-result": "214 to 216 °C"
  },
  {
    "molecule-smiles": "O=[N+]([O-])c1cccc(-c2csc(NN=C(c3ccccc3)c3ccccc3)n2)c1",
    "test-readout": "melting point",
    "assay-result": "166 to 168 °C"
  },
  {
    "molecule-smiles": "CC(=NNc1nc(-c2cccc([N+](=O)[O-])c2)cs1)c1ccc(Cl)s1",
    "test-readout": "melting point",
    "assay-result": "227 to 229 °C"
  },
  {
    "molecule-smiles": "CC(=NNc1nc(-c2cccc([N+](=O)[O-])c2)cs1)c1cc2ccccc2o1",
    "test-readout": "melting point",
    "assay-result": "228 to 230 °C"
  },
  {
    "molecule-smiles": "CC(=NNc1nc(-c2cccc([N+](=O)[O-])c2)cs1)c1ccc2c(c1)OCCO2",
    "test-readout": "melting point",
    "assay-result": "242 to 244 °C"
  },
  {
    "molecule-smiles": "CC(=NNc1nc(-c2cccc([N+](=O)[O-])c2)cs1)c1ccc([N+](=O)[O-])cc1",
    "test-readout": "melting point",
    "assay-result": "258 to 260 °C"
  },
  {
    "molecule-smiles": "O=[N+]([O-])c1cccc(-c2csc(NN=Cc3c[nH]c4ccccc34)n2)c1",
    "test-readout": "melting point",
    "assay-result": "253 to 255 °C"
  },
  {
    "molecule-smiles": "O=[N+]([O-])c1cccc(-c2csc(NN=Cc3cccc4ccccc34)n2)c1",
    "test-readout": "melting point",
    "assay-result": "212 to 214 °C"
  },
  {
    "molecule-smiles": "CC(=NNc1nc(-c2cccc([N+](=O)[O-])c2)cs1)c1cnccn1",
    "test-readout": "melting point",
    "assay-result": "243 to 245 °C"
  },
  {
    "molecule-smiles": "O=[N+]([O-])c1cccc(-c2csc(NN=Cc3ccc4c(c3)OCO4)n2)c1",
    "test-readout": "melting point",
    "assay-result": "255 to 256 °C"
  },
  {
    "molecule-smiles": "CCC(=NNc1nc(-c2cccc([N+](=O)[O-])c2)cs1)c1ccccc1",
    "test-readout": "melting point",
    "assay-result": "215 to 217 °C"
  },
  {
    "molecule-smiles": "CC(=NNc1nc(-c2cccc([N+](=O)[O-])c2)cs1)c1c[nH]c2ccccc12",
    "test-readout": "melting point",
    "assay-result": "209 to 211 °C"
  },
  {
    "molecule-smiles": "O=[N+]([O-])c1cccc(C=NNc2nc(-c3cccc([N+](=O)[O-])c3)cs2)c1",
    "test-readout": "melting point",
    "assay-result": "222 to 224 °C"
  },
  {
    "molecule-smiles": "CC(=NNc1nc(-c2cccc([N+](=O)[O-])c2)cs1)c1cccc2ccccc12",
    "test-readout": "melting point",
    "assay-result": "226 to 228 °C"
  },
  {
    "molecule-smiles": "CC(=NNc1nc(-c2cccc([N+](=O)[O-])c2)cs1)c1ccc(C(C)=NNc2nc(-c3cccc([N+](=O)[O-])c3)cs2)cc1",
    "test-readout": "melting point",
    "assay-result": "283 to 285 °C"
  },
  {
    "molecule-smiles": "CC(=NNc1nc(-c2cccc([N+](=O)[O-])c2)cs1)c1cc2ccccc2oc1=O",
    "test-readout": "melting point",
    "assay-result": "183 to 185 °C"
  },
  {
    "molecule-smiles": "O=[N+]([O-])c1cccc(-c2csc(NN=Cc3ccccc3)n2)c1",
    "test-readout": "melting point",
    "assay-result": "193 to 195 °C"
  },
  {
    "molecule-smiles": "O=[N+]([O-])c1cccc(-c2csc(NN=Cc3ccco3)n2)c1",
    "test-readout": "melting point",
    "assay-result": "213 to 215 °C"
  },
  {
    "molecule-smiles": "CC(=NNc1nc(-c2cccc([N+](=O)[O-])c2)cs1)c1ccc2ccccc2c1",
    "test-readout": "melting point",
    "assay-result": "152 to 154 °C"
  },
  {
    "molecule-smiles": "CC(=O)c1ccc(C(C)=NNc2nc(-c3cccc([N+](=O)[O-])c3)cs2)cc1",
    "test-readout": "melting point",
    "assay-result": "205 to 207 °C"
  }
]
